In this section we review reported Ka values for a set of binders.
measured_on: T1, β16β17 (erythrocyte β-spectrin residues 1898–2083), wild type (human, UniProt P11277 1898-2083)
T1 construct: erythrocyte β-spectrin, human, residues 1898-2083 (β16 plus the incomplete 17th domain); synthetic gene (GenScript) in a modified pRSETA plasmid; source: E. coli C41(DE3), purified (Ni2+ agarose, thrombin cleavage, gel filtration)
T1 sequence (looked up): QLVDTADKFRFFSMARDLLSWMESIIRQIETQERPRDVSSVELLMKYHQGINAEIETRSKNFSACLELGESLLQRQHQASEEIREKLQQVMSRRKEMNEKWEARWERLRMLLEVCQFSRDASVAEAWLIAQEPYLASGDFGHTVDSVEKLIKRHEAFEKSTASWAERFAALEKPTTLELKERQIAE
assay_method_text: ITC; β16β17 at 25–50 μM in the cell titrated with 15–20 injections to 2–2.5 eq of α0α1; one-site binding model; PBS (50 mM sodium phosphate, 150 mM NaCl, pH 7.04), 25 °C; mutants only against the wild-type partner
run_parameters: both partners purified
Number only, in M⁻¹; omit the unit.

INSERT INTO assay_data (binder, reported) VALUES
  ('α0α1 Y94A (domain or fragment, human, UniProt P02549 2-163, looked up, mutant of m1; also called Y35A; source: E. coli C41(DE3), purified (Ni2+ agarose, thrombin cleavage, gel filtration)) EQFPKETVVESSGPKVLETAEEIQERRQEVLTRAQSFKERVAERGQKLEDSYHLQVFKRDADDLGKWIMEKVNILTDKSYEDPTNIQGKYQKHQSLEAEVQTKSRLMSELEKTREERFTMGHSAHEETKAHIEELRHLWDLLLELTLEKGDQLLRALKFQQY', 670000),
  ('α0α1 R104A (domain or fragment, human, UniProt P02549 2-163, looked up, mutant of m1; also called R45A; source: E. coli C41(DE3), purified (Ni2+ agarose, thrombin cleavage, gel filtration)) EQFPKETVVESSGPKVLETAEEIQERRQEVLTRYQSFKERVAEAGQKLEDSYHLQVFKRDADDLGKWIMEKVNILTDKSYEDPTNIQGKYQKHQSLEAEVQTKSRLMSELEKTREERFTMGHSAHEETKAHIEELRHLWDLLLELTLEKGDQLLRALKFQQY', '6.7e+06'),
  ('α0α1 (erythrocyte α-spectrin residues 2–163), wild type (domain or fragment, human, UniProt P02549 2-163, looked up, synthetic gene (GenScript) in a modified pRSETA plasmid; also called α1α0; source: E. coli C41(DE3), purified (Ni2+ agarose, thrombin cleavage, gel filtration)) EQFPKETVVESSGPKVLETAEEIQERRQEVLTRYQSFKERVAERGQKLEDSYHLQVFKRDADDLGKWIMEKVNILTDKSYEDPTNIQGKYQKHQSLEAEVQTKSRLMSELEKTREERFTMGHSAHEETKAHIEELRHLWDLLLELTLEKGDQLLRALKFQQY', '2.07e+06'),
  ('α0α1 Y94L (domain or fragment, human, UniProt P02549 2-163, looked up, mutant of m1; also called Y35L; source: E. coli C41(DE3), purified (Ni2+ agarose, thrombin cleavage, gel filtration)) EQFPKETVVESSGPKVLETAEEIQERRQEVLTRLQSFKERVAERGQKLEDSYHLQVFKRDADDLGKWIMEKVNILTDKSYEDPTNIQGKYQKHQSLEAEVQTKSRLMSELEKTREERFTMGHSAHEETKAHIEELRHLWDLLLELTLEKGDQLLRALKFQQY', '4.4e+06');

[in] State the recorded Ka for this entry: α0α1 V101A (domain or fragment, human, UniProt P02549 2-163, looked up, mutant of m1; also called V42A; source: E. coli C41(DE3), purified (Ni2+ agarose, thrombin cleavage, gel filtration)) EQFPKETVVESSGPKVLETAEEIQERRQEVLTRYQSFKERAAERGQKLEDSYHLQVFKRDADDLGKWIMEKVNILTDKSYEDPTNIQGKYQKHQSLEAEVQTKSRLMSELEKTREERFTMGHSAHEETKAHIEELRHLWDLLLELTLEKGDQLLRALKFQQY
[out] 100000
